Each item that follows carries a reported pKi.
# target_entity: 5-HT2C (Homo sapiens)
# Sequence (P28335 33-458, species assumed): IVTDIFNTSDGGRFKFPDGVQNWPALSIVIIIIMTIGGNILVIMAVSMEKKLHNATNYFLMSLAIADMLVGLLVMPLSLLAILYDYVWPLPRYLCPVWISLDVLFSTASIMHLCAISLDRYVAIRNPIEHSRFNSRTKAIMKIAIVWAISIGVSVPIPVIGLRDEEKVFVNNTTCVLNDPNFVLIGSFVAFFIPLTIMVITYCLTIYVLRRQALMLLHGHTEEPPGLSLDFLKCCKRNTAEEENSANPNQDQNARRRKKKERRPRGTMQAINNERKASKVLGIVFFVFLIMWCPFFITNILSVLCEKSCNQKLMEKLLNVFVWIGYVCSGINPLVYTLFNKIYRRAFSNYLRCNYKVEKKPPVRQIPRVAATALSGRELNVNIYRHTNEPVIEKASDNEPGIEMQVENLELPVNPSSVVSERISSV
Counter-ions that a name gives are not always drawn.
Hey, just a heads up that pKi is the negative log base 10 of the concentration in molar.

Illustrative cases are given below, each with its answer.
compound="O=C(CCCCCN1CCCCCC1)n1c2ccccc2c2ccccc21 [Example 2.7, hydrochloride]" metric_name=pKi observed_value=6.39
compound="CC1CC(C)CN(CCCCCC(=O)n2c3ccccc3c3ccccc32)C1 (centres unmarked) [Example 2.6, hydrochloride]" metric_name=pKi observed_value=6.34
compound="O=C(CCCCN1CCCCCC1)n1c2ccccc2c2ccccc21 [Example 2.23, hydrochloride]" metric_name=pKi observed_value=5.96

pKi recorded for this compound, CCCCN(C)CCCCCC(=O)n1c2ccccc2c2ccccc21 [Example 2.1, hydrochloride] , is 6.68

Input O=C(CCCCCN1CCC(c2ccccc2)CC1)n1c2ccccc2c2ccccc21 [Example 2.9, hydrochloride] . Output pKi: 6.12

Quick note, pKi for CC1CC(C)CN(CCCCC(=O)n2c3ccccc3c3ccccc32)C1 (centres unmarked) [Example 2.22, hydrochloride] landed at 6.07

Entry under test: O=C(CCCCCN1CCCC1)n1c2ccccc2c2ccccc21 [Example 2.3, hydrochloride] . Its pKi was 6.12

Record summary for CN(CCCCCC(=O)n1c2ccccc2c2ccccc21)Cc1ccccc1 [Example 2.2, hydrochloride] : reported pKi = 5.88
